The origin of these recorded values is patent US12202835B2.

pIC50: −log10 of the molar value.
What follows is a record of pIC50 for TRKA kinase (Homo sapiens (Human)).

{"columns": ["Molecule", "pIC50"],
 "data": [
  ["COc1cc2nccc(Oc3ccc(NC(=O)c4cn(CCCO)c(=O)n(-c5ccc(F)cc5)c4=O)cc3F)c2c2c1OCCO2 [Example 99]", "6.30 to 7.30"],
  ["COc1cc2nccc(Oc3ccc(NC(=O)c4cn(CC5CC5)c(=O)n(-c5ccc(F)cc5)c4=O)cc3F)c2c2c1OCCO2 [Example 48]", "6.30 to 7.30"],
  ["Cn1cc(C(=O)Nc2ccc(Oc3ccnc4ccc5c(c34)OCCO5)c(F)c2)c(=O)n(-c2ccc(F)cc2)c1=O [Example 160]", "6.30 to 7.30"],
  ["COc1ccn(-c2ccc(F)cc2)c(=O)c1C(=O)Nc1ccc(Oc2ncnc3cc(OCCCN4CCOCC4)c4c(c23)OCCO4)c(F)c1 [Example 5]", "> 7.30"],
  ["Cn1cc(C(=O)Nc2ccc(Oc3ccnc4ccc5c(c34)OCCO5)cc2)c(=O)n(-c2ccc(F)cc2)c1=O [Example 158]", "6.30 to 7.30"],
  ["CCn1cc(C(=O)Nc2cc(F)c(Oc3ccnc4cc(OC)c5c(c34)OCCO5)cc2C)c(=O)n(-c2ccc(F)cc2)c1=O [Example 178]", "> 7.30"],
  ["CCOc1ccn(-c2ccc(F)cc2)c(=O)c1C(=O)Nc1ccc(Oc2ccnc3cc(OCC4(N)CC4)c4c(c23)OCCO4)c(F)c1 [Example 105]", "> 7.30"],
  ["COc1cc2nccc(Oc3ccc(NC(=O)c4cn(C(C)C)c(=O)n(Cc5ccc(F)cc5)c4=O)cc3F)c2c2c1OCCO2 [Example 111]", "5.30 to 6.30"],
  ["CCOc1ccn(-c2ccc(F)cc2)c(=O)c1C(=O)Nc1ccc(Oc2ccnc3cc(OCCCN4CCC(C)(C)CC4)c4c(c23)OCCO4)c(F)c1 [Example 67]", "> 7.30"],
  ["N#CCCCOc1cc2nccc(Oc3ccc(NC(=O)c4cccn(-c5ccc(F)cc5)c4=O)c(Cl)c3)c2c2c1OCCO2 [Example 131]", "> 7.30"],
  ["COc1cc2nccc(Oc3ccc(NC(=O)c4cn(C)c(=O)n(-c5ccc(F)cc5)c4=O)cc3F)c2c2c1OCCO2 [Example 13]", "> 7.30"],
  ["COCCOc1cc2nccc(Oc3ccc(NC(=O)c4cn(C(C)C)c(=O)n(-c5ccc(F)cc5)c4=O)cc3F)c2c2c1OCCO2 [Example 43]", "6.30 to 7.30"],
  ["CC(=O)N1CCN(CCCOc2cc3nccc(Oc4ccc(NC(=O)c5cn(C(C)C)c(=O)n(-c6ccc(F)cc6)c5=O)cc4F)c3c3c2OCCO3)CC1 [Example 75]", "> 7.30"],
  ["COCCOc1cc2nccc(Oc3ccc(NC(=O)c4cccn(-c5ccc(F)cc5)c4=O)cc3F)c2c2c1OCCO2 [Example 34]", "> 7.30"]
]}

---

Notes on IC50 obtained with UniProt P04629.
Parameter: IC50

{"columns": ["Compound", "Reported"],
 "data": [
  ["COCCCOc1cc2nccc(Oc3ccc(NC(=O)c4cn(C)c(=O)n(-c5ccc(F)cc5)c4=O)cc3F)c2c2c1OCCO2 [Example 80]", "< 50 nM"],
  ["COc1cc2ncnc(Oc3ccc(NC(=O)c4cccn(-c5ccc(F)cc5)c4=O)cc3F)c2c2c1OCCO2 [Example 1]", "< 50 nM"],
  ["CCOc1cc2nccc(Oc3ccc(NC(=O)c4cn(C)c(=O)n(-c5ccc(F)cc5)c4=O)c(Cl)c3)c2c2c1OCCO2 [Example 129]", "< 50 nM"],
  ["COCCn1cc(C(=O)Nc2ccc(Oc3ccnc4cc(OC)c5c(c34)OCCO5)c(F)c2)c(=O)n(-c2ccc(F)cc2)c1=O [Example 46]", "50 to 500 nM"],
  ["CCOc1ccn(-c2ccc(F)cc2)c(=O)c1C(=O)Nc1ccc(Oc2ccnc3cc(OCCCN4CCCCC4)c4c(c23)OCCO4)cc1Cl [Example 138]", "< 50 nM"],
  ["O=C(Nc1ccc(Oc2ccnc3cc(OCCCN4CCOCC4)c4c(c23)OCCO4)cc1Cl)c1cccn(-c2ccc(F)cc2)c1=O [Example 143]", "< 50 nM"],
  ["COc1cc2nccc(Oc3ccc(NC(=O)c4cn(C(C)C)c(=O)n(-c5cccc(F)c5)c4=O)cc3F)c2c2c1OCCO2 [Example 109]", "500 to 5000 nM"],
  ["COc1cc2nccc(Oc3cc(Cl)c(NC(=O)c4cn(C)c(=O)n(-c5ccc(F)cc5)c4=O)cc3F)c2c2c1OCCO2 [Example 116]", "< 50 nM"],
  ["Cn1cc(C(=O)Nc2ccc(Oc3ccnc4cc(OCC(C)(C)O)c5c(c34)OCCO5)cc2Cl)c(=O)n(-c2ccc(F)cc2)c1=O [Example 141]", "< 50 nM"],
  ["CCOc1ccn(-c2ccc(F)cc2)c(=O)c1C(=O)Nc1ccc(Oc2ccnc3cc(OCCCN4CCCCC4)c4c(c23)OCCO4)c(F)c1 [Example 33]", "< 50 nM"],
  ["CCOc1ccn(-c2ccc(F)cc2)c(=O)c1C(=O)Nc1ccc(Oc2ccnc3cc(OCCCN(C)C4CCC4)c4c(c23)OCCO4)c(F)c1 [Example 71]", "< 50 nM"],
  ["Cn1cc(C(=O)Nc2ccc(Oc3ccnc4cc(OCC(C)(C)O)c5c(c34)OCCO5)c(F)c2)c(=O)n(-c2ccc(F)cc2)c1=O [Example 121]", "50 to 500 nM"],
  ["CCOc1cc2nccc(Oc3ccc(NC(=O)c4cn(C(C)C)c(=O)n(-c5ccc(F)cc5)c4=O)cc3F)c2c2c1OCCO2 [Example 87]", "50 to 500 nM"]
]}
